Just for reference, patent US20230065306A1 is where these values come from.

- Target system: T1, human CD123 (full-length, on cells) (human, UniProt P26951 19-378)
- T1 construct: also called CD123-FL; interleukin-3 receptor alpha chain
- T1 sequence (P26951 19-378): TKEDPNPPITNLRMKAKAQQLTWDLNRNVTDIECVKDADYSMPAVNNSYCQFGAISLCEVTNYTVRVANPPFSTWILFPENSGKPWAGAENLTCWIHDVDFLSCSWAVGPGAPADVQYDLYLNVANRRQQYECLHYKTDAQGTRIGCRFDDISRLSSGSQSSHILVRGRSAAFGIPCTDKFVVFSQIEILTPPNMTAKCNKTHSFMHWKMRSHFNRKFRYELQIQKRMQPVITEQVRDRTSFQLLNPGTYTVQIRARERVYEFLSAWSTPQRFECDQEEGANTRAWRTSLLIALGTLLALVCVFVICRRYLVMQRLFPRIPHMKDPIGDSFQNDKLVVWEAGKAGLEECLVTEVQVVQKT
- Experiment: flow cytometry on HEK 293 cells transfected with full-length CD123; apparent Kd, one-site fit

| Binder | Kd |
| --- | --- |
| hz1F5v1-IgG1 (Fc fusion) EVQLVESGGGEVQPGGSLRLSCAASGRAINMYAMGWFRQAPGKEREFVAAINWNGAYTQYAESVKGRFTISRDNAKNTLYLQMSSLRAEDTAVYYCSADADYNTYVSPNKRVSYWGQGTLVTVDKTHTCPPCPAPGGPSVFLFPPKPKDTLMISRTPEVTCVVVDVSHEDPEVKFNWYVDGVEVHNAKTKPREEQYNSTYRVVSVLTVLHQDWLNGKEYKCKVSNKALPAPIEKTISKAKGQPREPQVYTLPPSRDELTKNQVSLTCLVKGFYPSDIAVEWESNGQPENNYKTTPPVLDSDGSFFLYSKLTVDKSRWQQGNVFSCSVMHEALHNHYTQKSLSLSPGK | 0.58 nM |
